test: xn = mol fraction of the nth substance listed; conditions: 288.15 K; 101.32 kPa; Liquid; x2 = 0.2
Reported mass density by item:
Readout Label: mass density (kg/m3)

{"columns": ["Compound", "Readout Label", "Numeric Value"],
 "data": [
  ["CCCCCl [1-chlorobutane] + CO", "mass density", 882.4],
  ["CCCCCl [1-chlorobutane] + CCCO", "mass density", 878.2],
  ["CCCCCl [1-chlorobutane] + CCCCO", "mass density", 877],
  ["CCCCCl [1-chlorobutane] + CCO", "mass density", 878.7]
]}

----------
Reported refractive index by item:
assay: refractive index (Na D-line) (dimensionless); xn = mol fraction of the nth substance listed; conditions: 298.15 K; 101.32 kPa; Liquid; x2 = 0.4
Readout Label: refractive index

{"columns": ["Molecule", "Readout Label", "Numeric Value"],
 "data": [
  ["CCCCCl [1-chlorobutane] + CCCCO", "refractive index", 1.3981],
  ["CCCCCl [1-chlorobutane] + CCO", "refractive index", 1.3875],
  ["CCCCCl [1-chlorobutane] + CCCO", "refractive index", 1.3934],
  ["CCCCCl [1-chlorobutane] + CO", "refractive index", 1.3835]
]}

----------
assay: refractive index (Na D-line) (dimensionless); xn = mol fraction of the nth substance listed; settings: 288.15 K; 101.32 kPa; Liquid; x2 = 0.95
Numbers after ± are expanded uncertainties.
Reported refractive index by item:

{"columns": ["Compound", "refractive index"],
 "data": [
  ["CCCCCl [1-chlorobutane] + CCO", "1.3665 ± 0.0006"],
  ["CCCCCl [1-chlorobutane] + CCCO", "1.3881 ± 0.0006"],
  ["CCCCCl [1-chlorobutane] + CCCCO", "1.4013 ± 0.0006"],
  ["CCCCCl [1-chlorobutane] + CO", "1.3384 ± 0.0006"]
]}

----------
Reported viscosity by item:
experiment: xn = mol fraction of the nth substance listed; conditions: 288.15 K; 101.32 kPa; Liquid; x2 = 0.1
Readout Label: viscosity (mPa·s)

{"columns": ["Compound", "U", "Numeric Value"],
 "data": [
  ["CCCCCl [1-chlorobutane] + CCO", "mPa·s", 0.479],
  ["CCCCCl [1-chlorobutane] + CCCCO", "mPa·s", 0.506],
  ["CCCCCl [1-chlorobutane] + CCCO", "mPa·s", 0.495],
  ["CCCCCl [1-chlorobutane] + CO", "mPa·s", 0.462]
]}

----------
Reported mass density by item:
assay: xn = mol fraction of the nth substance listed; settings: 288.15 K; 101.32 kPa; Liquid; x2 = 0.5
Readout Label: mass density (kg/m3)

{"columns": ["Molecule", "U", "Numeric Value"],
 "data": [
  ["CCCCCl [1-chlorobutane] + CCCCO", "kg/m3", 854.9],
  ["CCCCCl [1-chlorobutane] + CCO", "kg/m3", 855.7],
  ["CCCCCl [1-chlorobutane] + CCCO", "kg/m3", 856.3],
  ["CCCCCl [1-chlorobutane] + CO", "kg/m3", 863.3]
]}

----------
assay: refractive index (Na D-line) (dimensionless); xn = mol fraction of the nth substance listed; conditions: 308.15 K; 101.32 kPa; Liquid; x2 = 0.7
Reported refractive index by item:

{"columns": ["Molecule", "refractive index"],
 "data": [
  ["CCCCCl [1-chlorobutane] + CO", 1.3579],
  ["CCCCCl [1-chlorobutane] + CCO", 1.3708],
  ["CCCCCl [1-chlorobutane] + CCCO", 1.384],
  ["CCCCCl [1-chlorobutane] + CCCCO", 1.3933]
]}
